- Species: Rattus norvegicus
- experimental details: DrugMatrix - Regimen: Daily Repeat
- Type: toxicity, organism-based, Sprague-Dawley
- Set-up: regimen Daily Repeat, gender Male, age 6-8 weeks
- setup conditions: in vivo, iv, 0 mg/kg, 72 h, tissue Blood, dose level Control, time 3 day, vehicle 100 % SALINE
recorded endpoint: NUCLEATED RED BLOOD CELLS

Requested field: NUCLEATED RED BLOOD CELLS. Item: O=C(O)P(=O)(O)O [FOSCARNET]
0 /100WBC

# query: NUCLEATED RED BLOOD CELLS of entry N=C(N)c1ccc(OCCCCCOc2ccc(C(=N)N)cc2)cc1 [PENTAMIDINE]
0 /100WBC

Any idea what NUCLEATED RED BLOOD CELLS was measured for C[N+](C)(C)CCOC(=O)CCC(=O)OCC[N+](C)(C)C.[Cl-].[Cl-] [SUCCINYLCHOLINE CHLORIDE] ?
0 /100WBC

Quick check: NUCLEATED RED BLOOD CELLS of COc1cccc2c1C(=O)c1c(O)c3c(c(O)c1C2=O)C[C@@](O)(C(C)=O)C[C@@H]3O[C@H]1C[C@H](N)[C@H](O)[C@H](C)O1 [DAUNORUBICIN] ?
0 /100WBC

Requested field: NUCLEATED RED BLOOD CELLS. Item: O=c1[nH]c(=O)n([C@H]2C[C@H](O)[C@@H](CO)O2)cc1F [FLOXURIDINE]
0.17 /100WBC

###

- Species on record: Rattus norvegicus
- experimental details: DrugMatrix - Regimen: Daily Repeat
- Format: toxicity, organism-based, Sprague-Dawley
- Set-up: regimen Daily Repeat, gender Male, age 6-8 weeks
- setup conditions: in vivo, iv, 0 mg/kg, 72 h, tissue Blood, dose level Control, time 3 day, vehicle 100 % SALINE
recorded endpoint: LYMPHOCYTE (%)
# number only, unit % dropped from output

Suppose we examine the compound "O=C(O)P(=O)(O)O" ; what LYMPHOCYTE value has been reported?
88.17

Entry "N=C(N)c1ccc(OCCCCCOc2ccc(C(=N)N)cc2)cc1" has what LYMPHOCYTE?
86.67

So what does the record say about LYMPHOCYTE for "COc1cccc2c1C(=O)c1c(O)c3c(c(O)c1C2=O)C[C@@](O)(C(C)=O)C[C@@H]3O[C@H]1C[C@H](N)[C@H](O)[C@H](C)O1" ?
91.83

Any idea what LYMPHOCYTE was measured for C[N+](C)(C)CCOC(=O)CCC(=O)OCC[N+](C)(C)C.[Cl-].[Cl-] [SUCCINYLCHOLINE CHLORIDE] ?
86.67

Can you share its LYMPHOCYTE? I mean this compound: "O=c1[nH]c(=O)n([C@H]2C[C@H](O)[C@@H](CO)O2)cc1F"
89.67

###

For each of the compounds below, state its HEMOGLOBIN.
- Species: Rattus norvegicus
- experimental details: DrugMatrix - Regimen: Daily Repeat
- Type: toxicity, organism-based, Sprague-Dawley
- Design: regimen Daily Repeat, gender Male, age 6-8 weeks
- setup conditions: in vivo, po, 0 mg/kg, 72 h, tissue Blood, route oral GAVAGE, dose level Control, time 3 day, vehicle 100 % WATER

Report HEMOGLOBIN for CNC1=Nc2ccc(Cl)cc2C(c2ccccc2)=[N+]([O-])C1 [CHLORDIAZEPOXIDE] please.
14.05 G/DL

Report HEMOGLOBIN for CCN(CC)CCOC(=O)C1(C2CCCCC2)CCCCC1 [DICYCLOMINE] please.
14.12 G/DL

Which measured HEMOGLOBIN value corresponds to CCCC(C)C1(CC)C(=O)NC(=O)NC1=O (stereo not given) [PENTOBARBITAL] ?
13.17 G/DL

Quick one: HEMOGLOBIN for C#Cc1cccc(Nc2ncnc3cc(OCCOC)c(OCCOC)cc23)c1 [ERLOTINIB] ?
13.07 G/DL

May I ask what HEMOGLOBIN has been recorded for CN(C)C(=O)Oc1cccc([N+](C)(C)C)c1.[Br-] [NEOSTIGMINE BROMIDE] ?
13.17 G/DL

Hello, the source for this data is ChEMBL document CHEMBL3885881, in case you need it.
